Every entry's value here was drawn from patent US20090012085A1.

experiment: Phase I dose-escalating study, plasma pharmacokinetics in patients with solid tumor; assay type: in vivo, human; settings: human, plasma, 100 mg QD, 100 mg QD 4/1 (n = 6), nominal time 6 h; read-out: Mean plasma concentration following the last dose on cycle 1 day 28
metric_name: concentration at 6 h (ng/mL)
Please state the figure in ng/mL; there is no need to write the unit.

Requested read-out: concentration at 6 h. Entry: Cc1[nH]c(/C=C2\C(=O)Nc3ccc(F)cc32)c(C)c1C(=O)NC[C@H](O)CN1CCOCC1 [compound 1] 312

---

experiment: Phase I dose-escalating study, plasma pharmacokinetics in patients with solid tumor; type: in vivo, human; details: human, plasma, 50 mg, 50 mg QD (4/1), C2D28 (n = 3), plasma; read-out: C(trough, 24 h), mean (% CV)
metric_name: concentration at 24 h (ng/mL)
Please state the figure in ng/mL; there is no need to write the unit.

Requested read-out: concentration at 24 h. Entry: Cc1[nH]c(/C=C2\C(=O)Nc3ccc(F)cc32)c(C)c1C(=O)NC[C@H](O)CN1CCOCC1 44.2
